Please go through the items and note down their IC50.
# target.or.test.system: Ubiquitin carboxyl-terminal hydrolase 7 (Homo sapiens)
# Sequence (Q93009 whole entry): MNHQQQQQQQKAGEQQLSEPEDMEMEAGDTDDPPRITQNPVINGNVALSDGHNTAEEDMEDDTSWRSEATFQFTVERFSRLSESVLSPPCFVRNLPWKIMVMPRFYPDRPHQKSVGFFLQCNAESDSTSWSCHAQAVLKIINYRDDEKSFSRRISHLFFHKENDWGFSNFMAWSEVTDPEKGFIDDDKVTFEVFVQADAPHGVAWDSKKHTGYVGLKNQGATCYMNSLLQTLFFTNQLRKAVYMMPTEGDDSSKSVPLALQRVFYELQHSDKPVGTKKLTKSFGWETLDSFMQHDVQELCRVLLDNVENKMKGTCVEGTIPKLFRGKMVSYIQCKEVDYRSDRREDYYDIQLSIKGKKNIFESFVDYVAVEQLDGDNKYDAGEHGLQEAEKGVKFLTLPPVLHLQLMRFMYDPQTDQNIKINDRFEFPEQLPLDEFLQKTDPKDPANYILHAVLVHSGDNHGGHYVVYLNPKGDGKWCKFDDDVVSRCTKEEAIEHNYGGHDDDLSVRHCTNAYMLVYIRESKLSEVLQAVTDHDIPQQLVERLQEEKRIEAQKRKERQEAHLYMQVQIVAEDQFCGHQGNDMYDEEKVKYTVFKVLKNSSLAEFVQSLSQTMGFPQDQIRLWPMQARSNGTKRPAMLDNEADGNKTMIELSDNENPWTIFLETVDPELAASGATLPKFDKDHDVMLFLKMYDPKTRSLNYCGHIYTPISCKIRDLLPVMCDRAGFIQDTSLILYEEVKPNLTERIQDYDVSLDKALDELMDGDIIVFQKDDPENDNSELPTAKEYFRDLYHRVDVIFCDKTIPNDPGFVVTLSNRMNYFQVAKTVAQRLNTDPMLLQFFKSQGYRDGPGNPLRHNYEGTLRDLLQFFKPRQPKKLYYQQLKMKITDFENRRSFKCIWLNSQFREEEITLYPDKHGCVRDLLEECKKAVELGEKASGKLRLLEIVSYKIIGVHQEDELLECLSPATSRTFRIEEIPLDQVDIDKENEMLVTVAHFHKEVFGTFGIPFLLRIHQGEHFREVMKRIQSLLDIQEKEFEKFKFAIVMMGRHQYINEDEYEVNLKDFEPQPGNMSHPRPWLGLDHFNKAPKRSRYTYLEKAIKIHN
# test.description: Inhibition of human USP7 using human N-terminal GST-tagged UBA52 as substrate preincubated for 10 mins followed by substrate addition measured after 45 mins by coomassie brilliant blue staining-based SDS-PAGE analysis

Inquiry: What measured IC50 goes with C=C(C)[C@@H]1CC[C@]2(C)CC[C@]3(C)[C@H](CC[C@@H]4[C@@]5(C)CC[C@H](O)C(C)(C)[C@@H]5CC[C@]43C)[C@H]2C1 ?
Reply text: > 50 µM

Inquiry: Now consider CC1(C)CC[C@]2(C(=O)O)CC[C@]3(C)C(=CC[C@@H]4[C@@]5(C)CC[C@H](O)C(C)(C)[C@@H]5CC[C@]43C)[C@@H]2C1 and answer again.
Reply text: 12.5 µM

Inquiry: Now consider CC1(C)CC[C@]2(C(=O)O)CC[C@]3(C)C(=CC[C@@H]4[C@@]5(C)C[C@H](O)[C@H](O)[C@@](C)(CO)[C@@H]5CC[C@]43C)[C@@H]2C1 and answer again.
Reply text: > 50 µM

Inquiry: Now consider CC(=O)O[C@H]1CC[C@]2(C)[C@H]3CC=C4[C@@H]5[C@@H](C)[C@H](C)CC[C@]5(C(=O)O)CC[C@@]4(C)[C@]3(C)CC[C@H]2C1(C)C and answer again.
Reply text: > 50 µM

Inquiry: Now consider CC1(C)CCC2(C(=O)O)CCC3=C([C@@H](CCl)C[C@@H]4[C@@]5(C)C[C@H](O)[C@H](O)[C@](C)(C(=O)O)[C@@H]5CC[C@]34C)[C@@H]2C1 (single isomer, unassigned) and answer again.
Reply text: > 50 µM
